# Tested on: KM12 colon
# method-summary: NCI tumour cell line growth inhibition, 48 h
Quick reference: log10(TGI) of the listed items.
observation-type: log10(TGI) (log10 of the value in µM)

- molecule: "COc1cc(C2C(Cl)C(=O)N2c2c(C)n(C)n(-c3ccccc3)c2=O)ccc1O (stereo not given)"
  log10(TGI): 1.65
- molecule: "C[C@]12CC[C@H](O)CC1=CC[C@@H]1C2CC[C@]2(C)Nc3c(cnn3-c3ccccc3)CC12 (stereo not given in full)"
  log10(TGI): 0.71
- molecule: "COC(=O)C1C(O)C(C)C(O)C(C)C=C(C)C2=C3C(=C(C)C(=O)c4c(O)c(c(C)c(OC(C)=O)c43)NC(=O)C(C)=C/C=C\\C(C)C(O)C(C)C1O)OCO2 (stereo not given)"
  log10(TGI): 2.00
- molecule: "COc1cnc2c(c1)C(=O)c1c-2n(CCCNCCO)c(=O)c2ccncc12"
  log10(TGI): 1.07
- molecule: "Cc1cc(O)c(C2=NN(c3ccc(S(N)(=O)=O)cc3)C(c3ccc(Cl)cc3)C2)c(C)c1Cl (stereo not given)"
  log10(TGI): 1.03

---

# System: SN12C renal
# method-summary: NCI tumour cell line growth inhibition, 48 h; in the data active means GI50 below about 0.43 µM; inactive means the rest
Outcome codes: active, inactive

- compound: "O=C(Oc1ccc(CO[N+](=O)[O-])cc1)c1ccccc1"
  class-label: "active"
- compound: "Cc1nc2ccc(NC(=O)CCNC(=O)CCCc3ccc(CC(C(=O)O)C(=O)O)cc3)cc2s1"
  class-label: "inactive"
- compound: "O=c1[nH]c2nc(NC3CCOCC3)ncc2cc1Oc1ccc(F)cc1F"
  class-label: "inactive"
- compound: "CC(C)=CCC(OC(=O)C=C(C)C)C1=CC(=O)c2c(O)ccc(O)c2C1=O (centres undefined)"
  class-label: "inactive"
- compound: "CCN(c1cc(-c2ccc(CN3CCOCC3)cc2)cc(C(=O)NCc2c(C)cc(C)[nH]c2=O)c1C)C1CCOCC1"
  class-label: "inactive"
- compound: "COC(=O)COc1ccc(/C=C2/N=C(c3ccccc3)N(c3c(C)n(C)n(-c4ccccc4)c3=O)C2=O)cc1"
  class-label: "inactive"
- compound: "Cn1cc(-c2ccc3nnc(Sc4ccc5ncccc5c4)n3n2)cn1"
  class-label: "inactive"
- compound: "C1CC[N-]CC1.CC(=N\\O)/C(C)=N/O.CC(=N\\O)/C(C)=N/O.OC1[CH-]CCCC1.[Co+2]"
  class-label: "inactive"
- compound: "Cc1nc(Nc2cccnc2)sc1C(=O)/C=C/c1ccc(Cl)cc1"
  class-label: "inactive"

---

Reported TGI is given for each of the following compounds.
# System: HOP-62 NSCLC
# method-summary: NCI tumour cell line growth inhibition, 48 h

- compound: "CC1(C)CC(=O)C2(CC(CSc3ccccc3)C(CS(=O)(=O)c3ccccc3)C2)C(=O)C1 (stereo not given)"
  sign-qualifier: ">"
  TGI, µM: 100
- compound: "O=C(c1cccs1)N1CCN(C(=O)c2cccs2)C1=S"
  sign-qualifier: "="
  TGI, µM: 18.8
- compound: "Cc1c(NC(=S)NC(=O)c2ccc([N+](=O)[O-])cc2)c(=O)n(-c2ccccc2)n1C"
  sign-qualifier: ">"
  TGI, µM: 100
- compound: "COc1cccc(C=O)c1[O-].[O]=[U](=[O])([OH2+])[OH2+]"
  sign-qualifier: ">"
  TGI, µM: 100
- compound: "C/C(=N\\Nc1nc2cc(C(F)(F)F)ccc2s1)c1ccccn1"
  sign-qualifier: "="
  TGI, µM: 13.7
- compound: "COC(=O)CC(NC(=O)OCc1ccccc1)C(C(=O)OCc1ccccc1)C(C)(OC)OC (stereo not given)"
  sign-qualifier: ">"
  TGI, µM: 100
- compound: "Cc1ccc(S(=O)(=O)Nn2c(O)c(C#N)c(-c3ccc(Cl)cc3)c(C#N)c2=O)cc1"
  sign-qualifier: ">"
  TGI, µM: 100
- compound: "CC(C)(C)n1c(=O)[nH]c(=O)n1C(C)(C)C"
  sign-qualifier: ">"
  TGI, µM: 100
- compound: "CCCCCCCCNCCC[C@@H](C)[C@H]1CC[C@H]2[C@@H]3[C@H](OCCCN)C[C@H]4C[C@H](OCCCN)CC[C@]4(C)[C@H]3C[C@H](OCCCN)[C@]12C"
  sign-qualifier: "="
  TGI, µM: 7.16
- compound: "C#Cc1nc2ccccc2c(=O)[nH]1"
  sign-qualifier: "="
  TGI, µM: 5.64

---

# Test system: SNB-78 CNS
# method-summary: NCI tumour cell line growth inhibition, 48 h
Listing of entries alongside the reported TGI.

- molecule: "CC(=O)OCC(=O)[C@@]12OC(C)(C)O[C@@H]1C[C@H]1[C@@H]3CC(C=O)=C4C=C(OCCCl)CC[C@]4(C)[C@@]3(F)[C@@H](O)C[C@@]12C"
  TGI: "68.8 µM"
- molecule: "COc1ccc(C(=O)C(CC2C(=O)NC(=O)NC2=O)c2ccc(OC)cc2)cc1 (centres undefined)"
  TGI: "> 100 µM"
- molecule: "COc1cccc(N[C@@H]2c3cc4c(cc3C(c3cc(OC)c(O)c(OC)c3)[C@H]3C(=O)OCC32)OCO4)c1 (some centres undefined)"
  TGI: "> 100 µM"
- molecule: "COc1ccc(/C(Cl)=C/c2cc(OC)ccc2OC)cc1"
  TGI: "> 100 µM"

---

# Tested on: SF-268 CNS
# method-summary: NCI tumour cell line growth inhibition, 48 h
Measured GI50 by item
observation-type: GI50

- compound: "Cc1cc(O)c(C2=NN(c3ccc(S(N)(=O)=O)cc3)C(c3ccc(Cl)cc3)C2)c(C)c1Cl (stereo unspecified)"
  result: "5.76 µM"
- compound: "S=c1nc(N/N=C/c2ccco2)c2cn[nH]c2[nH]1"
  result: "48.4 µM"
- compound: "Cc1ccc(S(=O)(=O)c2nc(-c3ccccc3)oc2S(C)=O)cc1 (stereo unspecified)"
  result: "2.14 µM"
- compound: "COc1ncnc(S(=O)(=O)c2ccc(N=C3C(=O)N(CN4CCN(c5cc6c(cc5F)c(=O)c(C(=O)O)cn6C5CC5)CC4)c4ccc(Cl)cc43)cc2)c1OC"
  result: "49 µM"
- compound: "O=C(Nc1ccc(-c2nc(-c3cccc(OCCN4CCOCC4)c3)c(-c3ccnc(Br)c3)[nH]2)cc1)c1ccccc1"
  result: "3.82 µM"
- compound: "Cn1cc(-c2ccc3nnc(Sc4ccc5ncccc5c4)n3n2)cn1"
  result: "60.2 µM"

---

# System: UO-31 renal
# method-summary: NCI tumour cell line growth inhibition, 48 h; in the data active = GI50 below about 0.43 µM; inactive = the rest
Outcome codes: 1 (yes) (active), 0 (no) (inactive)

- query-smiles: "OCc1ccc(-c2cscc2-c2ccc(CO)o2)o1"
  class-label: "0 (no)"
- query-smiles: "COc1ncnc(S(=O)(=O)c2ccc(N=C3C(=O)N(CN4CCN(c5cc6c(cc5F)c(=O)c(C(=O)O)cn6C5CC5)CC4)c4ccc(Cl)cc43)cc2)c1OC"
  class-label: "0 (no)"
- query-smiles: "CC1=C2C(=CO[C@H](C)[C@H]2C)C(=O)C(C(=O)O)=C1O"
  class-label: "0 (no)"
- query-smiles: "O=C([O][Sn]([O]C(=O)c1ccccn1)([c]1ccccc1)[c]1ccccc1)c1ccccn1"
  class-label: "0 (no)"
- query-smiles: "Cc1c2cc(Cl)c3ccccc3c2c[n+]2ccccc12"
  class-label: "0 (no)"
- query-smiles: "O=C(Oc1ccc(CO[N+](=O)[O-])cc1)c1ccccc1"
  class-label: "1 (yes)"
- query-smiles: "Cc1c(-c2ccnc(N)n2)c2c(n1Cc1ccccc1)C(=O)c1ccccc1C2=O"
  class-label: "0 (no)"
- query-smiles: "COc1ccc2[nH]c(O)c(/C=c3/cc4c(c(-c5ccc(F)c(OC)c5)n3)=Nc3ccccc3-4)c2c1"
  class-label: "0 (no)"
- query-smiles: "Cc1nn2c(/C=C3/C(=O)Nc4cc(Cl)ccc43)c(-c3ccccc3)nc2s1"
  class-label: "0 (no)"
- query-smiles: "C#Cc1nc2ccccc2c(=O)[nH]1"
  class-label: "1 (yes)"
- query-smiles: "COc1cnc2c(c1)C(=O)c1c-2n(CCCNCCO)c(=O)c2ccncc12"
  class-label: "0 (no)"
- query-smiles: "O=c1cc(N/N=C/c2ccc(F)cc2)c2cc(Cl)ccc2[nH]1"
  class-label: "0 (no)"
- query-smiles: "S=c1nc(N/N=C/c2ccco2)c2cn[nH]c2[nH]1"
  class-label: "0 (no)"
- query-smiles: "CCN(c1cc(-c2ccc(CN3CCOCC3)cc2)cc(C(=O)NCc2c(C)cc(C)[nH]c2=O)c1C)C1CCOCC1"
  class-label: "0 (no)"
- query-smiles: "C1=C2CCCC3=Cc4ccccc4OC23Oc2ccccc21"
  class-label: "0 (no)"
- query-smiles: "COc1ccc(C(=O)NNc2nc(Cl)nc(N3CCN(C(c4ccccc4)c4ccccc4)CC3)n2)cc1"
  class-label: "0 (no)"
- query-smiles: "Cc1nc2c(n1C)C(=O)c1ccccc1C2=O"
  class-label: "0 (no)"
- query-smiles: "c1ccc(-c2nc(N3CCOCC3)c3c4c(sc3n2)CCCCCC4)nc1"
  class-label: "0 (no)"
- query-smiles: "CSCCCNC(=O)c1ccc2c(c1)/C(=C/c1[nH]c(C)cc1C)C(=O)N2"
  class-label: "1 (yes)"
